Tested on: H3255
Test: relative viability (nuclei count vs DMSO), 5 days (fraction); higher = more cells survive
Details: first compound 0.3162 µM

molecule | relative viability
CCN(CC)CCCCNc1ncc2cc(-c3cc(OC)cc(OC)c3)c(NC(=O)NC(C)(C)C)nc2n1 + CC(=O)Nc1cccc(-n2c(=O)n(C3CC3)c(=O)c3c(Nc4ccc(I)cc4F)n(C)c(=O)c(C)c32)c1 [Trametinib] (partner 0.02 µM) | 0.711
O=c1cc(N2CCOCC2)oc2c(-c3cccc4c3sc3ccccc34)cccc12 + COc1cccc2cc(-c3nc([C@H]4CC[C@H](C(=O)O)CC4)n4ncnc(N)c34)[nH]c12 [OSI-027] (partner 0.5 µM) | 0.668
